Ref: paper PMC7948503

Target: T1, Rluc-ADGRG2-ΔGPS-β F747A (mouse, UniProt Q8CJ12-3 38-995, F747A)
T1 construct: ADGRG2 (GPR64), mouse, ADGRG2-ΔGPS-β: the entire ECD removed; source: HEK293, transfected, on cells; not shown: Rluc, N-terminal, kept
T1 sequence (Q8CJ12 other isoform, or with tags, fused parts or gaps F747A | F747A | F747A F747A): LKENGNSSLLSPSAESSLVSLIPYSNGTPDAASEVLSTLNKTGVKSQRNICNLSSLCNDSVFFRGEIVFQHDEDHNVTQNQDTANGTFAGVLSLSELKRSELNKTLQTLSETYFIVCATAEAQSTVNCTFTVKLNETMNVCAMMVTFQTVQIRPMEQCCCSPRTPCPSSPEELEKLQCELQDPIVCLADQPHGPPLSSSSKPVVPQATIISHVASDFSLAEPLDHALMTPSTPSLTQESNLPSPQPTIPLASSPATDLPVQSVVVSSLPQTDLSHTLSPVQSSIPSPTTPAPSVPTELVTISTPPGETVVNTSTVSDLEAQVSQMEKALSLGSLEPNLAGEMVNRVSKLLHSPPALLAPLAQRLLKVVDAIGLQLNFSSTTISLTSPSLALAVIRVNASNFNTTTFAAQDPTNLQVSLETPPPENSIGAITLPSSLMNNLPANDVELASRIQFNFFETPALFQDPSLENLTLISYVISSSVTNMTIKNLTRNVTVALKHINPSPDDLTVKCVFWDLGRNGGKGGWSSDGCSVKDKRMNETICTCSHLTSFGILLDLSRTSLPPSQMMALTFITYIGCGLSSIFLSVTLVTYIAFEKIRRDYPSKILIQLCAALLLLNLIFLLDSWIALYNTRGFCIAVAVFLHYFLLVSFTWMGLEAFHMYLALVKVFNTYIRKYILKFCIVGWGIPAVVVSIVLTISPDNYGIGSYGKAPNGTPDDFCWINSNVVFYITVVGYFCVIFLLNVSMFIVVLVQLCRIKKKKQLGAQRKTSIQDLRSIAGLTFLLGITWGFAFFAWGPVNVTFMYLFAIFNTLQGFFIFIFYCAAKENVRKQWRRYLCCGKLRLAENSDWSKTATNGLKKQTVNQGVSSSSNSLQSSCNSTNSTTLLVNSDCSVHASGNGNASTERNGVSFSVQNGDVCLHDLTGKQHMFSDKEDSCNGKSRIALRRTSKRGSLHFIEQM
Assay: FRET or BRET; HEK293 cells transfected with Rluc-ADGRG2-ΔGPS-β WT or mutants, stimulated by increasing concentrations of FITC-conjugated VPM-p15; saturation curves fitted with GraphPad; each experiment repeated 6 times
Settings: one partner purified
Non-standard residues stand in square brackets, D forms with d. Primed or numbered codes have the meaning given here. No end group written: not given here. Phe(4-Me) = Cc1ccc(C[C@H](N)C(=O)O)cc1; FITC′ = not defined here
measured.endpoint: pEC50
pEC50 (log units): -log10 of the concentration in mol/L.

Task item: So what's the measured pEC50 for this one? VS[Phe(4-Me)]GILLDLSRTSLP-{FITC′} [FITC-conjugated VPM-p15 (ADGRG2 Stachel peptide p15 T1V/F3Phe(4-Me))]
Reply: 6.12
